biological target: streptavidin (SA) (Streptomyces avidinii); test: Direct binding to SA quantified by Trp-FRET
Please respond with reported pKd for every item in the list.
Answers are plain numbers, as −log10 of the molar value.

1) C[C@@H]1NC(=S)N[C@@H]1CCCCCC(=O)NCCNC(=O)c1cc2cc(F)c(O)c(F)c2oc1=O [compound 18] | 6.84

Query string: Supply recorded pKd for O=C(CCCC[C@@H]1SC[C@@H]2NC(=S)N[C@@H]21)NCCNC(=O)c1cc2cc(F)c(O)c(F)c2oc1=O [compound 17] here.
Result string: 7.96

* * *

target: streptavidin (SA) (Streptomyces avidinii, UniProt P22629); assay: Isothermal titration calorimetry; format: binding
Sequence (P22629 25-183): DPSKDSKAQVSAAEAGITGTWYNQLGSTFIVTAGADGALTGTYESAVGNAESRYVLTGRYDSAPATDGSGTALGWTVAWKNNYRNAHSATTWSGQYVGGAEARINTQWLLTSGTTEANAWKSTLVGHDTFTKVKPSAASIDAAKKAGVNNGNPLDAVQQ
Please respond with reported Kd for every item in the list.
Give bare numbers, in µM.

Here's what some known entries look like.
1. C[C@@H]1NC(=S)N[C@@H]1CCCCCC(=O)NCCNC(=O)c1cc2cc(F)c(O)c(F)c2oc1=O | 0.125
2. C[C@@H]1NC(=S)N[C@@H]1CCCCCC(=O)O | 1.55

// switching to the query compound
Query string: Supply recorded Kd for O=C(CCCC[C@@H]1SC[C@@H]2NC(=S)N[C@@H]21)NCCNC(=O)c1cc2cc(F)c(O)c(F)c2oc1=O here.
Result string: 0.012
